system: human pancreatic MiaPaCa-2 cells; assay: Tumor Cell Proliferation Assay (ATP Lite), MiaPaCa-2; format: cell-based; conditions: MIA PaCa-2, 96 h, 4 days, ATPlite, read-out: MiaPaCa2 cell proliferation IC50
pIC50: −log10 of the molar value.
experimental-endpoint: pIC50

> print(dat)
                                    molecule                            target  observed.value
 1             Fc1cc(I)ccc1Nc1cnccc1-c1nnco1  human pancreatic MiaPaCa-2 cells          ≥ 5.52
 2  Nc1nnc(-c2c(Nc3ccc(I)cc3F)cncc2-c2ccccc2Cl)o1  human pancreatic MiaPaCa-2 cells          ≥ 5.52
 3       Cc1cc(I)ccc1Nc1cnccc1-c1nnc(N)[nH]1  human pancreatic MiaPaCa-2 cells          ≥ 5.52
 4  CCOC(=O)C(=O)Nc1nnc(-c2ccncc2Nc2ccc(I)cc2F)o1  human pancreatic MiaPaCa-2 cells          ≥ 5.52
 5          Fc1cc(I)ccc1Nc1cnccc1-c1c[nH]nn1  human pancreatic MiaPaCa-2 cells          ≥ 5.52
 6  CCOC(=O)Nc1nnc(-c2ccncc2Nc2ccc(I)cc2F)o1  human pancreatic MiaPaCa-2 cells          ≥ 5.52
 7  Fc1cc(I)ccc1Nc1cnccc1-c1nnc(NCCN2CCCCC2)o1  human pancreatic MiaPaCa-2 cells          ≥ 5.52
 8       Nc1nnc(-c2ccncc2Nc2ccc(I)cc2F)[nH]1  human pancreatic MiaPaCa-2 cells          ≥ 5.52
 9             Fc1cc(I)ccc1Nc1cnccc1-c1ncno1  human pancreatic MiaPaCa-2 cells          ≥ 5.52
10  OCC(O)CNc1nnc(-c2ccncc2Nc2ccc(I)cc2F)o1 (stereo not shown)  human pancreatic MiaPaCa-2 cells          ≥ 5.52
11      O=c1[nH]nc(-c2ccncc2Nc2ccc(I)cc2F)o1  human pancreatic MiaPaCa-2 cells    4.60 to 5.52
12        Nc1nnc(-c2ccncc2Nc2ccc(Br)cc2Br)o1  human pancreatic MiaPaCa-2 cells          ≥ 5.52
13  Fc1cc(I)ccc1Nc1cnccc1-c1nnc(NCCCN2CCOCC2)o1  human pancreatic MiaPaCa-2 cells          ≥ 5.52
14  COC(=O)CNc1nnc(-c2ccncc2Nc2ccc(I)cc2F)o1  human pancreatic MiaPaCa-2 cells    4.60 to 5.52
15          Fc1cc(I)ccc1Nc1cnccc1-c1ccn[nH]1  human pancreatic MiaPaCa-2 cells          ≥ 5.52
16        Nc1nnc(-c2ccncc2Nc2ccc(Br)cc2Cl)o1  human pancreatic MiaPaCa-2 cells          ≥ 5.52
17   CN(C)CCNc1nnc(-c2ccncc2Nc2ccc(I)cc2F)o1  human pancreatic MiaPaCa-2 cells          ≥ 5.52
18    CC(=O)Nc1nnc(-c2ccncc2Nc2ccc(I)cc2F)o1  human pancreatic MiaPaCa-2 cells          ≥ 5.52
19   O=C(O)CNc1nnc(-c2ccncc2Nc2ccc(I)cc2F)o1  human pancreatic MiaPaCa-2 cells    4.60 to 5.52
20          Fc1cc(I)ccc1Nc1cnccc1-c1nnn[nH]1  human pancreatic MiaPaCa-2 cells          < 4.60
21  Fc1cc(I)ccc1Nc1cncc(-c2ccccc2F)c1-c1c[nH]nn1  human pancreatic MiaPaCa-2 cells          ≥ 5.52
22   Fc1cc(I)ccc1Nc1cnccc1-c1nnc(N2CCOCC2)o1  human pancreatic MiaPaCa-2 cells          ≥ 5.52
23  Nc1nnc(-c2cc[n+]([O-])cc2Nc2ccc(I)cc2F)o1  human pancreatic MiaPaCa-2 cells          ≥ 5.52
24         CSc1nnc(-c2ccncc2Nc2ccc(I)cc2F)o1  human pancreatic MiaPaCa-2 cells          ≥ 5.52
25   NC(=O)CNc1nnc(-c2ccncc2Nc2ccc(I)cc2F)o1  human pancreatic MiaPaCa-2 cells          ≥ 5.52
26          Cc1cc(I)ccc1Nc1cnccc1-c1nnc(N)o1  human pancreatic MiaPaCa-2 cells          ≥ 5.52
27     Cn1c(-c2ccncc2Nc2ccc(I)cc2F)n[nH]c1=S  human pancreatic MiaPaCa-2 cells          ≥ 5.52
28  CCOC(=O)c1nnc(-c2ccncc2Nc2ccc(I)cc2F)[nH]1  human pancreatic MiaPaCa-2 cells    4.60 to 5.52
29  Fc1cc(I)ccc1Nc1cnccc1-c1nnc(NCCN2CCOCC2)o1  human pancreatic MiaPaCa-2 cells          ≥ 5.52
30  CC1(C)OCC(CNc2nnc(-c3ccncc3Nc3ccc(I)cc3F)o2)O1 (stereo not shown)  human pancreatic MiaPaCa-2 cells          ≥ 5.52
31       Nc1nnc(-c2c(F)cncc2Nc2ccc(I)cc2F)o1  human pancreatic MiaPaCa-2 cells          ≥ 5.52
32      OCc1nnc(-c2ccncc2Nc2ccc(I)cc2F)[nH]1  human pancreatic MiaPaCa-2 cells          ≥ 5.52
33  Nc1nnc(-c2c(Nc3ccc(I)cc3F)cncc2-c2ccccc2F)o1  human pancreatic MiaPaCa-2 cells          ≥ 5.52
34          Cc1nnc(-c2ccncc2Nc2ccc(I)cc2F)o1  human pancreatic MiaPaCa-2 cells          ≥ 5.52
35         Nc1nnc(-c2ccncc2Nc2ccc(I)cc2Cl)o1  human pancreatic MiaPaCa-2 cells          ≥ 5.52
36       COc1ccc(Nc2cnccc2-c2nnc(N)o2)c(F)c1  human pancreatic MiaPaCa-2 cells          ≥ 5.52
37      Fc1cc(I)ccc1Nc1cnccc1-c1n[nH]c(=S)o1  human pancreatic MiaPaCa-2 cells          ≥ 5.52
38          Fc1cc(I)ccc1Nc1cnccc1-c1cn[nH]c1  human pancreatic MiaPaCa-2 cells          ≥ 5.52
39          Nc1nnc(-c2ccncc2Nc2ccc(I)cc2F)o1  human pancreatic MiaPaCa-2 cells          ≥ 5.52
40   O=c1[nH]nc(-c2ccncc2Nc2ccc(I)cc2F)[nH]1  human pancreatic MiaPaCa-2 cells          ≥ 5.52

###

tested on: human pancreatic MiaPaCa-2 cells; assay: Tumor Cell Proliferation Assay (ATP Lite), MiaPaCa-2; type: cell-based; conditions: MIA PaCa-2, 96 h, 4 days, ATPlite, read-out: MiaPaCa2 cell proliferation IC50
pIC50: −log10 of the molar value.
Reported pIC50 is given for each of the following compounds.
experimental-endpoint: pIC50

> print(dat)
                                    compound  experimental.endpoint  observed.value
 1  Fc1cc(I)ccc1Nc1cnccc1C1NNC(=S)N1CCN1CCOCC1 (centres unmarked)                  pIC50          ≥ 5.52
 2         OCc1noc(-c2ccncc2Nc2ccc(I)cc2F)n1                  pIC50    4.60 to 5.52
 3  C[Si](C)(C)c1[nH]nnc1-c1ccncc1Nc1ccc(I)cc1F                  pIC50          ≥ 5.52
 4         Nc1nnc(-c2ccncc2Nc2ccc(Br)cc2F)o1                  pIC50          ≥ 5.52
 5  CCOC(=O)C(C)Nc1nnc(-c2ccncc2Nc2ccc(I)cc2F)o1 (centres unmarked)                  pIC50          ≥ 5.52
 6  CC(Nc1nnc(-c2ccncc2Nc2ccc(I)cc2F)o1)C(=O)O (centres unmarked)                  pIC50    4.60 to 5.52
 7  Fc1cc(I)ccc1Nc1cnccc1-c1nnc(NCC2CCCO2)o1 (centres unmarked)                  pIC50          ≥ 5.52
 8       OCCNc1nnc(-c2ccncc2Nc2ccc(I)cc2F)o1                  pIC50          ≥ 5.52
 9  CCOC(=O)CNC(=O)Nc1nnc(-c2ccncc2Nc2ccc(I)cc2F)o1                  pIC50    4.60 to 5.52
10         CNc1nnc(-c2ccncc2Nc2ccc(I)cc2F)s1                  pIC50          ≥ 5.52
11  Fc1cc(I)ccc1Nc1cnccc1-c1nnc(NCCN2CCCC2)o1                  pIC50          ≥ 5.52
12  Fc1cc(I)ccc1Nc1cnccc1-c1nnc(NCCN2CCOCC2)s1                  pIC50          ≥ 5.52
13          Nc1nnc(-c2ccncc2Nc2ccc(I)cc2F)s1                  pIC50          ≥ 5.52
14      CN(C)c1nnc(-c2ccncc2Nc2ccc(I)cc2F)o1                  pIC50          ≥ 5.52
15  CN(C)C(=O)CNc1nnc(-c2ccncc2Nc2ccc(I)cc2F)o1                  pIC50          ≥ 5.52
16             Fc1cc(I)ccc1Nc1cnccc1-c1ncon1                  pIC50    4.60 to 5.52
17  Fc1cc(I)ccc1Nc1cnccc1-c1nnc(NCC2CCCO2)s1 (centres unmarked)                  pIC50          ≥ 5.52
18   CCOC(=O)c1nnc(-c2ccncc2Nc2ccc(I)cc2F)o1                  pIC50          < 4.60
19     Cn1c(-c2ccncc2Nc2ccc(I)cc2F)n[nH]c1=O                  pIC50          ≥ 5.52
20         CNc1nnc(-c2ccncc2Nc2ccc(I)cc2F)o1                  pIC50          ≥ 5.52
